- Experimental Target: Cytochrome P450 3A4 (Homo sapiens, UniProt P08684)
- Sequence (P08684 whole entry): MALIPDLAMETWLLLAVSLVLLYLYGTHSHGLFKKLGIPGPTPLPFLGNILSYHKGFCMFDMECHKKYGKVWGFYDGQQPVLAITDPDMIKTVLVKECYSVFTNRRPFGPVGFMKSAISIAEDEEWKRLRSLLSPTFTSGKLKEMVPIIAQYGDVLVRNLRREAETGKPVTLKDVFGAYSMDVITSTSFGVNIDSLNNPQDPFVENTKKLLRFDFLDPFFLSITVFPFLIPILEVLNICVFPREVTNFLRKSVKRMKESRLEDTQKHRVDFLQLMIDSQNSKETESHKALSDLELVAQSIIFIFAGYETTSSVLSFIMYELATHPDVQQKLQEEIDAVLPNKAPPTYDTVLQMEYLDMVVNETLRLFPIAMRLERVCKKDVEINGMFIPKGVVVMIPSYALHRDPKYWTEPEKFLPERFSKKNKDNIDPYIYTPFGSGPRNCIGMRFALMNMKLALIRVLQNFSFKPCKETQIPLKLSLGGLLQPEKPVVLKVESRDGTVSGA
- Assay Summary: Inhibition of human CYP3A4 expressed in Escherichia coli using 7-benzyloxyquinoline as substrate
- Type: ADME
Parameter: pIC50
Answers are plain numbers, as −log10 of the molar value.

Task: Form field: reported pIC50 of CC(=O)O.O=S(=O)(c1cccc(CCCCOCCCCCCNC[C@H](O)c2ccc(O)c(CO)c2)c1)C1CCCC1
Output: 5.42

---

- Assay Summary: Plasma protein binding in human
- Type: ADME, cell-free
- Study Conditions: read-out: PPB (converted)
Parameter: fraction unbound

Task: Form field: reported fraction unbound of CC(=O)O.O=S(=O)(c1cccc(CCCCOCCCCCCNC[C@H](O)c2ccc(O)c(CO)c2)c1)C1CCCC1
Output: 0.02

---

- Experimental Target: Beta-2 adrenergic receptor (Homo sapiens)
- Sequence (P07550 whole entry): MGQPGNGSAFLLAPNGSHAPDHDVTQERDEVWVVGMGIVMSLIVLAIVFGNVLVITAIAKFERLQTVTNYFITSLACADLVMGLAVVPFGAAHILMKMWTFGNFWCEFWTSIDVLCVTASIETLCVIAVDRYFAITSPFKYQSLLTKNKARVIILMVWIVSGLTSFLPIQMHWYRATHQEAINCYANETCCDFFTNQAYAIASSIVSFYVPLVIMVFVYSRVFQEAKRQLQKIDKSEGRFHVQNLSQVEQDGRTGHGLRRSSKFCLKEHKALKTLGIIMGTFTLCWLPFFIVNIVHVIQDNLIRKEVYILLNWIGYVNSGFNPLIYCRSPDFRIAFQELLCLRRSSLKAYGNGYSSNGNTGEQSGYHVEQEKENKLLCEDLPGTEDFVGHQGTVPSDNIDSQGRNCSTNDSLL
- Assay Summary: Agonist activity at human beta2 adrenoceptor transfected in CHO cells assessed as cyclic AMP accumulation after 45 mins by fluorescence polarization assay
- Format: functional, cell-based
Parameter: EC50 (nM)
Answers are plain numbers, in nM.

Solved entries:
1) O=S(=O)(c1cccc(CCCCOCCCCCCNC[C@H](O)c2ccc(O)c(CO)c2)c1)C1CCCCC1 ... 1.58
2) O=S1(=O)CCc2ccc(CCCCOCCCCCCNC[C@H](O)c3ccc(O)c(CO)c3)cc21 ... 7.94
3) O=S(=O)(c1ccc(CCCCOCCCCCCNC[C@H](O)c2ccc(O)c(CO)c2)cc1)C1CCCC1 ... 31.6
4) CC(=O)O.O=S(=O)(c1cccc(CCCCOCCCCCCNC[C@H](O)c2ccc(O)c(CO)c2)c1)C1CCCC1 ... 2
5) O=S1(=O)CCCc2ccc(CCCCOCCCCCCNC[C@H](O)c3ccc(O)c(CO)c3)cc21 ... 39.8
6) Cc1cc(CCCCOCCCCCCNC[C@H](O)c2ccc(O)c(CO)c2)cc(S(=O)(=O)C2CCCC2)c1 ... 0.501
7) O=S(=O)(c1cccc(CCCCOCCCCCCNC[C@H](O)c2ccc(O)c(CO)c2)c1)C1CC=CC1 ... 1

Task: Return EC50 measured with Beta-2 adrenergic receptor (Homo sapiens) given this molecule: CS(=O)(=O)c1ccc(CCCCOCCCCCCNC[C@H](O)c2ccc(O)c(CO)c2)cc1
Output: 20

---

- Assay Summary: Volume of distribution at steady state in beagle dog at 0.05 mg/kg, iv up to 8 hrs by LC-MS/MS analysis
- Type: ADME, organism-based, Canis lupus familiaris
- Parameters: dose 0.05 mg/kg, route intravenous
- Study Conditions: in vivo, read-out: Vdss
Parameter: Vd (L/kg)
Numbers only, in L/kg.

Task: Form field: reported Vd of CC(=O)O.O=S(=O)(c1cccc(CCCCOCCCCCCNC[C@H](O)c2ccc(O)c(CO)c2)c1)C1CCCC1
Output: 0.1

---

- Assay Summary: Drug metabolism in human hepatocytes at 1 uM after 2 hrs by LC-MS/MS analysis
- Type: ADME, cell-based, Hepatocyte
- Study Conditions: read-out: Drug metabolism
Parameter: metabolised at 2 h, 1 µM

Task: Form field: reported metabolised at 2 h, 1 µM of CC(=O)O.O=S(=O)(c1cccc(CCCCOCCCCCCNC[C@H](O)c2ccc(O)c(CO)c2)c1)C1CCCC1
Output: 90%

---

- Assay Summary: Oral bioavailability in beagle dog at 0.25 mg/kg up to 8 hrs by LC-MS/MS analysis
- Type: ADME, organism-based, Canis lupus familiaris
- Study Conditions: in vivo
Parameter: bioavailability (%)
Numbers only, in %.

Task: Form field: reported bioavailability of CC(=O)O.O=S(=O)(c1cccc(CCCCOCCCCCCNC[C@H](O)c2ccc(O)c(CO)c2)c1)C1CCCC1
Output: 3
